Target: T1, 4H478-AA
T1 chain: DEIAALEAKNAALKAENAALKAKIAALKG
Test: two-hybrid library CCmax;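 note: natural log of median RNA to DNA barcode read ratio; higher means stronger binding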
Conditions: mean of both orientations
MEASUREMENT KIND: interaction score

binder="DKNAALKAKIAALKAEIAALKAKNAALKG [4H3920-AA]" measurement_kind="interaction score" numeric_result=-1.71
binder="DENAALEAEIAALEAEIAALKAENAALEG [4H1035-AA]" measurement_kind="interaction score" numeric_result=-1.03
binder="DKNAALKAEIAALEAEIAALEAKNAALEG [4H3591-AA]" measurement_kind="interaction score" numeric_result=-1.53
binder="DKIAALKAKNAALEAEIAALEAENAALKG [4H2948-AA]" measurement_kind="interaction score" numeric_result=-1.62
binder="DKIAALEAENAALKAEIAALEAKNAALKG [4H2248-AA]" measurement_kind="interaction score" numeric_result=0.536
binder="DEIAALEAENAALEAENAALEAEIAALKG [4H146-AA]" measurement_kind="interaction score" numeric_result=1.98
binder="DKIAALKAKNAALKAKNAALKAEIAALKG [4H3066-AA]" measurement_kind="interaction score" numeric_result=1.25
binder="DENAALEAEIAALKAKNAALKAEIAALKG [4H1146-AA]" measurement_kind="interaction score" numeric_result=-1.22
binder="DEIAALEAKNAALEAKIAALKAENAALKG [4H428-AA]" measurement_kind="interaction score" numeric_result=-1.71
binder="DKNAALKAEIAALEAKIAALKAENAALKG [4H3628-AA]" measurement_kind="interaction score" numeric_result=-2.19
binder="DENAALEAEIAALKAENAALEAKIAALEG [4H1109-AA]" measurement_kind="interaction score" numeric_result=-1.55
binder="DENAALKAKIAALEAENAALEAEIAALEG [4H1809-AA]" measurement_kind="interaction score" numeric_result=0.898
binder="DKIAALKAKNAALKAENAALEAKIAALEG [4H3029-AA]" measurement_kind="interaction score" numeric_result=1.48
binder="DKIAALEAENAALKAKIAALKAENAALEG [4H2283-AA]" measurement_kind="interaction score" numeric_result=-1.52
binder="DKNAALKAKIAALKAKIAALEAENAALEG [4H3939-AA]" measurement_kind="interaction score" numeric_result=-1.63
binder="DKIAALKAENAALEAENAALKAEIAALEG [4H2713-AA]" measurement_kind="interaction score" numeric_result=2.27
binder="DENAALEAKIAALKAEIAALEAENAALKG [4H1348-AA]" measurement_kind="interaction score" numeric_result=0.507
binder="DEIAALKAKNAALKAKIAALEAKNAALKG [4H1000-AA]" measurement_kind="interaction score" numeric_result=-2.48
binder="DKNAALEAKIAALKAENAALKAEIAALEG [4H3417-AA]" measurement_kind="interaction score" numeric_result=0.524
binder="DKNAALEAEIAALEAKNAALEAEIAALEG [4H3121-AA]" measurement_kind="interaction score" numeric_result=-0.966
binder="DENAALEAEIAALEAKIAALEAKNAALKG [4H1064-AA]" measurement_kind="interaction score" numeric_result=-1.56
binder="DKNAALKAEIAALKAENAALEAEIAALKG [4H3666-AA]" measurement_kind="interaction score" numeric_result=0.407
binder="DEIAALEAKNAALEAEIAALEAKNAALEG [4H391-AA]" measurement_kind="interaction score" numeric_result=-1.59
binder="DENAALKAKIAALEAKNAALKAKIAALKG [4H1854-AA]" measurement_kind="interaction score" numeric_result=-1.16
binder="DENAALEAKIAALKAKIAALKAKNAALEG [4H1391-AA]" measurement_kind="interaction score" numeric_result=-1.53
binder="DKNAALEAKIAALKAKNAALEAKIAALKG [4H3446-AA]" measurement_kind="interaction score" numeric_result=-1.66
binder="DEIAALEAENAALEAKNAALKAKIAALEG [4H189-AA]" measurement_kind="interaction score" numeric_result=1.85
